- System: Methicillin Resistant Staphylococcus aureus strain USA 300, NRS384
- assay_remarks: Minimum inhibitory concentration, broth micro-dilution (CLSI), S. aureus
- Assay type: cell-based
- test_conditions: Staphylococcus aureus, MRSA / NRS 384 / USA300, 22 h, MRSA USA 300 NRS384; 35° C., 22 hours; read-out: MIC (μg/mL) S. aureus
measured_parameter: MIC (µg/mL)
One number for each entry, in µg/mL.

// solved cases for MIC follow
CCCCCCCCCCCCCC(=O)N1C[C@@H](N)CC1C(=O)N(C)[C@@H]1C(=O)N[C@@H](C)C(=O)N[C@H](C(=O)NCC#N)Cc2ccc(OCCN)c(c2)-c2cc1ccc2OCCN (some centres unmarked) | 0.047
CCCCCCCCC(=O)N[C@@H](CCN)C(=O)N(C)[C@@H]1C(=O)N[C@@H](C)C(=O)N[C@H](C(=O)NCC#N)Cc2ccc(OCCN)c(c2)-c2cc1ccc2OCCN | 0.38
CCCCCCCCCCNCCC(=O)N(C)[C@@H]1C(=O)N[C@@H](C)C(=O)N[C@H](C(=O)NCC#N)Cc2ccc(OCCN)c(c2)-c2cc1ccc2O | 0.094
CCCCCCc1ccc(C(=O)N[C@@H](CCCCN)C(=O)N(C)[C@@H]2C(=O)N[C@@H](C)C(=O)N[C@H](C(=O)NCC#N)Cc3ccc(OCCN)c(c3)-c3cc2ccc3OCCN)c(C)c1 | 0.031

Okay, now this compound:
Looking for the measured MIC of `CCCc1ccc(-c2ncc(C(=O)N[C@@H](CCN)C(=O)N(C)[C@@H]3C(=O)N[C@@H](C)C(=O)N[C@H](C(=O)NCC#N)Cc4ccc(OCCN)c(c4)-c4cc3ccc4OCCN)c(C)n2)cc1` , can you help?
0.031

====

- Tested on: Methicillin Resistant Staphylococcus aureus strain USA 300, NRS384
- assay_remarks: Minimum inhibitory concentration, broth micro-dilution (CLSI), S. aureus
- Assay type: cell-based
- test_conditions: Staphylococcus aureus, MRSA / NRS 384 / USA300, 22 h, MRSA USA 300 NRS384; 35° C., 22 hours; read-out: MIC (μg/mL) S. aureus
Consider the following compounds; for each one, report its MIC.
Numbers only, in µg/mL.

CCCCc1ccc(/C=C/C(=O)N[C@@H](CCN)C(=O)N(C)[C@@H]2C(=O)N[C@@H](C)C(=O)N[C@H](C(=O)NCC#N)Cc3ccc(OCCN)c(c3)-c3cc2ccc3OCCN)cc1 | 0.094
CCCCc1cccc(C(=O)N[C@@H](CCCN)C(=O)N(C)[C@@H]2C(=O)N[C@@H](C)C(=O)N[C@H](C(=O)NCC#N)Cc3ccc(OCCN)c(c3)-c3cc2ccc3OCCN)c1C | 0.38
CCC(C)(C)c1ccc(-c2ncc(C(=O)N[C@@H](CCN)C(=O)N(C)[C@@H]3C(=O)N[C@@H](C)C(=O)N[C@H](C(=O)NCC#N)Cc4ccc(OCCN)c(c4)-c4cc3ccc4OCCN)c(C)n2)cc1 | 0.063

API: value(readout=MIC, system=Methicillin Resistant Staphylococcus aureus strain USA 300, NRS384) for record `CCCCCCCc1ccc(C(=O)N[C@@H](CCN)C(=O)N(C)[C@@H]2C(=O)N[C@@H](C)C(=O)N[C@H](C(=O)NCC#N)Cc3ccc(O)c(c3)-c3cc2ccc3OCCN)c(C)c1`
0.078
